The measured values listed here are drawn from PubChem BioAssay (EPA / NIEHS).

- Read-out: Monocyte Chemoattractant Protein-1 (MCP1), CCL2 (gene 6347)
- experiment_description: BSK_CASM3C_MCP1: BioMAP Diversity Plus: CASM3C Assay for Monocyte Chemoattractant Protein-1 (MCP1) Biomarker Activity (AID 2283046);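 also: MCP-1 level quantified by ELISA 24 h after dosing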
- condition_info: primary human coronary artery smooth muscle cells; actives raise or lower the signal
The source made the active and inactive calls. The calls were made as follows: active = hit-call score of the fitted dose curve at least 0.9, where 1 is the maximum; inactive = score below 0.9.
Select the correct class. Options are Yes = active, No = inactive and nothing else.

Reference set, count: 5
CC(C)CCCC(C)(C)O ... No
CCCCCCCCCC(=O)OCC ... Yes
CC(C)(CO)CO ... No
O=C1OC2(c3ccc(O)cc3Oc3cc(O)ccc32)c2ccccc21 ... No
CCOC(=O)CCCCCCCCC(=O)OCC ... No

input: Name the outcome recorded for COC(=O)c1ccc(C(=O)OC)cc1 in the assay.
output: No

input: Name the outcome recorded for CC(=O)OCC=C(C)CCC=C(C)CCC=C(C)C in the assay.
output: No

input: Name the outcome recorded for OCCN1CCOCC1 in the assay.
output: No

input: Name the outcome recorded for CCCCCCCC1CCCC1=O (stereo not given) in the assay.
output: Yes

input: Name the outcome recorded for CCCCCCCCCCCCS in the assay.
output: Yes

###

- experiment_description: ATG_NRF2_ARE_CIS: Attagene CIS-FACTORIAL HepG2 Assay for human Nuclear Factor Erythroid 2 Related Factor 2 (NFR2) response to Antioxidant Response Elements (ARE) (AID 2282992)
- condition_info: HepG2 Attagene ARE/NRF2 reporter, transcription factor activity; actives raise or lower the signal
Calls of active or inactive are those of the source. Rule for the calls: active = hit-call score of the fitted dose curve at least 0.9, where 1 is the maximum; inactive = score below 0.9.
Select the correct class. Options are yes for active, no for inactive and nothing else.

CCOCC(C)O (configuration not stated) ... no

input: Name the outcome recorded for CCCCCCCCCCCCOCCOS(=O)(=O)O in the assay.
output: no

input: Name the outcome recorded for CC(=O)OCC=C(C)CCC=C(C)CCC=C(C)C in the assay.
output: yes

input: Name the outcome recorded for CC=CC(=O)C1=C(C)C=CCC1(C)C in the assay.
output: no

input: Name the outcome recorded for CC1(C)CC(N)CC(C)(CN)C1 (configuration not stated) in the assay.
output: no

input: Name the outcome recorded for CCCOC(=O)CC in the assay.
output: no

input: Name the outcome recorded for C=C/C(C)=C/C/C=C(\C)CCC=C(C)C in the assay.
output: yes

input: Name the outcome recorded for CCC(C)(C)c1cc(O)c(C(C)(C)CC)cc1O in the assay.
output: yes

input: Name the outcome recorded for CC(C)N1C(=O)c2ccccc2C1=O in the assay.
output: no

input: Name the outcome recorded for CCC(C)(CCCC(C)C)OC(C)=O (configuration not stated) in the assay.
output: no

input: Name the outcome recorded for O=S1(=O)CC=CC1 in the assay.
output: no

input: Name the outcome recorded for CC(C)(CO)CO in the assay.
output: no

input: Name the outcome recorded for C[C@H](CCC(=O)O)[C@H]1CC[C@H]2[C@@H]3CC[C@@H]4C[C@H](O)CC[C@]4(C)[C@H]3CC[C@]12C in the assay.
output: yes

input: Name the outcome recorded for CC1(C)CC(=O)CC(C)(C)N1 in the assay.
output: no

input: Name the outcome recorded for Cc1cccc(C)c1 in the assay.
output: no

input: Name the outcome recorded for C1=COCCC1 in the assay.
output: no

input: Name the outcome recorded for O=C1CCC(=O)N1 in the assay.
output: no

input: Name the outcome recorded for O=C(O)c1ccc(C(=O)O)c(C(=O)O)c1 in the assay.
output: no

input: Name the outcome recorded for CNC(=C[N+](=O)[O-])NCCSCc1ccc(CN(C)C)o1 in the assay.
output: no
